Listing: Degradation rate of prodrug % of selected compounds
Test: Degradation of prodrug in rat plasma (release of dexmedetomidine, HPLC)
Assay type: in vitro ADME
Conditions: 37° C., 1 min
Structures can show the parent of a compound that is named as a salt.
Hi, when you answer, please include the unit after the number. Thanks!

Before answering, review these 5 worked examples.
Compound: Cc1cccc([C@H](C)c2cn(COC(=O)C3CC3)cn2)c1C [Compound 15-HCl]
Degradation rate of prodrug %: 41%

Compound: COC(=O)OCn1cnc([C@@H](C)c2cccc(C)c2C)c1 [Compound 13-HCl]
Degradation rate of prodrug %: 44%

Compound: CCOC(=O)CCC(=O)OCn1cnc([C@@H](C)c2cccc(C)c2C)c1 [Compound 27-HCl]
Degradation rate of prodrug %: 58%

Compound: CCC(=O)OC(C)n1cnc([C@@H](C)c2cccc(C)c2C)c1 (stereo partly drawn) [Compound 18-HCl]
Degradation rate of prodrug %: 33%

Compound: CCOC(=O)OCn1cnc([C@@H](C)c2cccc(C)c2C)c1 [Compound 6-HCl]
Degradation rate of prodrug %: 47%

Noted for Cc1cccc([C@H](C)c2cn(COC(=O)C(C)C)cn2)c1C [Compound 2-HCl] : its Degradation rate of prodrug % reads 57%

Noted for CCOC(=O)COC(=O)OCn1cnc([C@@H](C)c2cccc(C)c2C)c1 [Compound 24-HCl] : its Degradation rate of prodrug % reads 21%

Noted for Cc1cccc([C@H](C)c2cn(COP(=O)(O)O)cn2)c1C : its Degradation rate of prodrug % reads 31%

Noted for Cc1cccc([C@H](C)c2cn(COC(=O)C(C)(C)C)cn2)c1C [Compound 3-HCl] : its Degradation rate of prodrug % reads 73%
